B1: EFHC1 (parent)
chain: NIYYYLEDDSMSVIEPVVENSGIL

variants of: B1; experiment: protein stability index of a GFP-peptide fusion (GPS, HEK-293T) (PSI 1-6); higher = more stable; settings: c terminus: a fixed tail appended;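 further: lentivirally expressed fusions sorted by FACS into six bins by GFP to DsRed ratio, PSI derived from sequencing read proportions per bin multiplied by bin number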
parameter: protein stability index

In [3]: df
Out[3]:
                     sequence_code  test_result
0   NIYTYLEDDSMSVIEPVVENSGIL [Y4T]         2.91
1  NIYYYLEDDSMSVIEPEVENSGIL [V17E]         3.08
2  NIYYYLEDDSMSVIEPVGENSGIL [V18G]         3.04
3  NIYYYLEDDSMSVIEPVVENSGIM [L24M]         2.02
